- System: Chikungunya virus
- procedure.details: Antiviral activity against Chikungunya virus Indian Ocean 889 infected in African green monkey Vero cells assessed as inhibition of virus-induced cytopathic effect after 7 days by MTS method
- Type: functional, organism-based
- condition.set: Indian Ocean 889, Vero, 168 h
readout: EC50 (µM)

INSERT INTO results (chemical_string, readout, unit_name, quantitative_result) VALUES
  ('C/C1=C\[C@@H]2[C@H](CC[C@]3(C)O[C@H]3C3=C(C1=O)[C@@H](O)[C@H](C)C3=O)C2(C)C', 'EC50', 'µM', 14);
